tested on: Escherichia coli; assay: Antibacterial activity against Escherichia coli ATCC 25922; assay type: functional
Lab note: compare MIC with 60 µM, writing TRUE if less and FALSE if equal or more.

smilesCode: CC(C)(C)c1cc(C(C)(C)C)c2[nH]c(C(C)(C)C)c(C[C@H](N)C(=O)N[C@@H](CCCNC(=N)N)C(=O)NCc3ccccc3)c2c1
class: TRUE

smilesCode: CC(C)(C)c1cc(C(C)(C)C)c2[nH]c(C(C)(C)C)c(C[C@H](NC(=O)[C@@H](N)CCCNC(=N)N)C(=O)N[C@@H](CCCNC(=N)N)C(N)=O)c2c1
class: FALSE

smilesCode: COC(=O)[C@H](CCCNC(=N)N)NC(=O)[C@@H](N)Cc1c(C(C)(C)C)[nH]c2c(C(C)(C)C)cc(C(C)(C)C)cc12
class: TRUE

smilesCode: CC(C)(C)c1cc(C(C)(C)C)c2[nH]c(C(C)(C)C)c(C[C@H](NC(=O)[C@@H](N)CCCNC(=N)N)C(=O)N[C@@H](CCCNC(=N)N)C(=O)NCc3ccccc3)c2c1
class: TRUE

smilesCode: COC(=O)[C@H](CCCNC(=N)N)NC(=O)[C@H](Cc1c(C(C)(C)C)[nH]c2c(C(C)(C)C)cc(C(C)(C)C)cc12)NC(=O)[C@@H](N)CCCNC(=N)N
class: TRUE

smilesCode: CC(C)(C)c1cc(C(C)(C)C)c2[nH]c(C(C)(C)C)c(C[C@H](NC(=O)[C@@H](N)CCCCN)C(=O)N[C@@H](CCCNC(=N)N)C(N)=O)c2c1
class: FALSE

Note: attention shifts to another entry.
Ask | Determine if COC(=O)[C@H](CCCNC(=N)N)NC(=O)[C@@H](Cc1c(C(C)(C)C)[nH]c2c(C(C)(C)C)cc(C(C)(C)C)cc12)NC(=O)[C@@H](N)CCCNC(=N)N shows MIC strictly lower than 60 µM.
Reply | FALSE

---

MIC listing for selected compounds.
system: Staphylococcus aureus; assay: Antibacterial activity against Staphylococcus aureus ATCC 25923; assay type: functional
Report as a plain number; the unit µM is understood.

smilesCode: CC(C)(C)c1cc(C(C)(C)C)c2[nH]c(C(C)(C)C)c(C[C@H](NC(=O)[C@@H](N)CCCNC(=N)N)C(=O)N[C@@H](CCCNC(=N)N)C(N)=O)c2c1
resultNumber: 11

smilesCode: CC(C)(C)c1cc(C(C)(C)C)c2[nH]c(C(C)(C)C)c(C[C@H](N)C(=O)N[C@@H](CCCNC(=N)N)C(N)=O)c2c1
resultNumber: 28

smilesCode: COC(=O)[C@H](CCCNC(=N)N)NC(=O)[C@H](Cc1c(C(C)(C)C)[nH]c2c(C(C)(C)C)cc(C(C)(C)C)cc12)NC(=O)[C@@H](N)CCCNC(=N)N
resultNumber: 7.2

Ask | GET /values?readout=MIC&item= CC(C)(C)c1cc(C(C)(C)C)c2[nH]c(C(C)(C)C)c(C[C@H](N)C(=O)N[C@@H](CCCNC(=N)N)C(=O)NCc3ccccc3)c2c1
Reply | 4

Ask | And then COC(=O)[C@H](CCCNC(=N)N)NC(=O)[C@@H](N)Cc1c(C(C)(C)C)[nH]c2c(C(C)(C)C)cc(C(C)(C)C)cc12 , what is it?
Reply | 9.2

Ask | Here is the next compound: CC(C)(C)c1cc(C(C)(C)C)c2[nH]c(C(C)(C)C)c(C[C@H](NC(=O)[C@@H](N)CCCCN)C(=O)N[C@@H](CCCNC(=N)N)C(N)=O)c2c1
Reply | 23

Ask | // same read-out, input: COC(=O)[C@H](CCCNC(=N)N)NC(=O)[C@@H](Cc1c(C(C)(C)C)[nH]c2c(C(C)(C)C)cc(C(C)(C)C)cc12)NC(=O)[C@@H](N)CCCNC(=N)N
Reply | 7.2

Ask | Now try CC(C)(C)c1cc(C(C)(C)C)c2[nH]c(C(C)(C)C)c(C[C@H](NC(=O)[C@@H](N)CCCNC(=N)N)C(=O)N[C@@H](CCCNC(=N)N)C(=O)NCc3ccccc3)c2c1 .
Reply | 3.2

Ask | Further, for COC(=O)[C@H](CCCNC(=N)N)NC(=O)[C@H](N)Cc1c(C(C)(C)C)[nH]c2c(C(C)(C)C)cc(C(C)(C)C)cc12 ?
Reply | 28
